src = ChEMBL document CHEMBL4725350

- system.under.test: Bifunctional epoxide hydrolase 2 (Rattus norvegicus)
- Sequence (P80299 whole entry): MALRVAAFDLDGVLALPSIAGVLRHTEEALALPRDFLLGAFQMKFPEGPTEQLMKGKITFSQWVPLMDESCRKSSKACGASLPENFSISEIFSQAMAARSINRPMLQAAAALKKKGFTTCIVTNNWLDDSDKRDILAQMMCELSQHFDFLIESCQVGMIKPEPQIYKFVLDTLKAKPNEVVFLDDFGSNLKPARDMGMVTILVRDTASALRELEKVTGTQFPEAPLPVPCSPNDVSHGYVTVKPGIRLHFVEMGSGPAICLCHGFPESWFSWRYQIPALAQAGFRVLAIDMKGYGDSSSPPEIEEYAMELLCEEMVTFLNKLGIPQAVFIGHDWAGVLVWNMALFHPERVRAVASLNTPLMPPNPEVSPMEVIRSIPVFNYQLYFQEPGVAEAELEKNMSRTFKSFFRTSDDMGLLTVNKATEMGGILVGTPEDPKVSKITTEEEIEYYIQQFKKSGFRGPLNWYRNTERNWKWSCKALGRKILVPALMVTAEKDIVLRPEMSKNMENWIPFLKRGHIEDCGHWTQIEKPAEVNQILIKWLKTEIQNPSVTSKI
- test.name: Inhibition of recombinant rat soluble epoxide hydrolase using CMNPC as substrate preincubated for 5 mins followed by substrate addition and measured at 30 secs interval for 10 mins by fluorescence assay
Exercise: state measured IC50 for each of the compounds provided.
Only the number, expressed in nM, is required.

Problem: What measured IC50 goes with CC(C)S(=O)(=O)N1CCC(NC(=O)NC23CC4CC(CC(C4)O2)C3)CC1 ?
Solution: 1.9

Problem: Could you share which IC50 value was measured for CC(=O)N1CCC(NC(=O)NC23CC4CC(CC(C4)O2)C3)CC1 ?
Solution: 3.3

* * *

- test.name: Clearance in CD-1 mouse at 1 mg/kg, ip measured up to 24 hrs by LC-MS analysis
- Assay type: ADME, organism-based
- condition: in vivo
quantity.measured: CL/F (mL/min/kg)
Express it in mL/min/kg; write the number only.

Problem: CL/F lookup needed for CC(C)S(=O)(=O)N1CCC(NC(=O)NC23CC4CC(CC(C4)O2)C3)CC1 , thanks.
Solution: 474

* * *

I'd appreciate it if you could supply CC50 values for the items below.
- test.name: Cytotoxicity against human PBMC assessed as reduction in cell viability measured after 72 hrs by ATPlite assay
- condition: read-out: LC50 (the source's name)

Problem: Quick check: CC50 of CC(C)S(=O)(=O)N1CCC(NC(=O)NC23CC4CC(CC(C4)O2)C3)CC1 ?
Solution: > 20 µM

Problem: For the compound shown here, CC(=O)N1CCC(NC(=O)NC23CC4CC(CC(C4)O2)C3)CC1 , give the reported CC50.
Solution: > 20 µM

Problem: For O=C(NC1CCN(C(=O)c2ccccc2F)CC1)NC12CC3CC(CC(C3)O1)C2 , what is its reported CC50?
Solution: > 20 µM

* * *

- test.name: Stability in human liver microsomes assessed as parent compound remaining measured after 60 mins in presence of NADPH by LC-MS/MS analysis
- Type: ADME, Microsome
- condition: read-out: Stabilty
For each record, write down the corresponding remaining at 1 h.
Answer shape: numeric part, then the unit.

Problem: Reported remaining at 1 h for O=C(NC1CCN(C(=O)c2ccccc2F)CC1)NC12CC3CC(CC(C3)O1)C2 : what is it?
Solution: 30.2%

Problem: Which remaining at 1 h is reported for this compound? CC(C)S(=O)(=O)N1CCC(NC(=O)NC23CC4CC(CC(C4)O2)C3)CC1
Solution: 72.7%

Problem: I'd like to know its remaining at 1 h. The compound in question is CC(=O)c1ccc(N2CCC(NC(=O)NC34CC5CC(CC(C5)O3)C4)CC2)cc1
Solution: 40%

Problem: Reported remaining at 1 h for CC(=O)N1CCC(NC(=O)NC23CC4CC(CC(C4)O2)C3)CC1 : what is it?
Solution: 88.8%

* * *

- test.name: Apparent permeability across apical to basolateral side in human Caco-2 cells at 10 uM measured after 2 hrs by LC-MS/MS analysis
- condition: caco-2, 2 h
quantity.measured: Papp (×10⁻⁶ cm/s)
Provide only the numeric value, understood in ×10⁻⁶ cm/s.

Problem: Which Papp is reported for this compound? O=C(Nc1ccc(F)c(F)c1F)NC12CC3CC(CC(C3)O1)C2
Solution: 16.8

Problem: Recorded Papp of O=C(Nc1ccc(F)c(F)c1F)NC12CC3CC(CC(C3)C1)C2 , please.
Solution: 0.67

Problem: # Papp lookup, item O=C(NC12CC3CC(CC(C3)O1)C2)N[C@H]1CC[C@H](Oc2ccc(C(=O)O)cc2)CC1
Solution: 0.14

Problem: // Papp lookup, key: CC(=O)N1CCC(NC(=O)NC23CC4CC(CC(C4)O2)C3)CC1
Solution: 2.24

* * *

- test.name: Stability in rat liver microsomes assessed as parent compound remaining measured after 60 mins in presence of NADPH by LC-MS/MS analysis
- Format: ADME, Microsome
- condition: read-out: Stabilty
quantity.measured: remaining at 1 h (%)
Output spec: scalar in %, unitless text.

Problem: I am curious: what remaining at 1 h value has been reported for CC(C)S(=O)(=O)N1CCC(NC(=O)NC23CC4CC(CC(C4)O2)C3)CC1 ?
Solution: 63.9

Problem: Dear colleague, I am looking for the recorded remaining at 1 h of the following compound: O=C(NC1CCN(C(=O)c2ccccc2F)CC1)NC12CC3CC(CC(C3)O1)C2
Solution: 19.3

Problem: # lookup: remaining at 1 h of CC(=O)c1ccc(N2CCC(NC(=O)NC34CC5CC(CC(C5)O3)C4)CC2)cc1
Solution: 84

Problem: Which remaining at 1 h is listed for CC(=O)N1CCC(NC(=O)NC23CC4CC(CC(C4)O2)C3)CC1 ?
Solution: 85.1

* * *

- test.name: Efflux ratio of apparent permeability across basolateral to apical side over apical to basolateral side in human Caco-2 cells at 10 uM measured after 2 hrs by LC-MS/MS analysis
quantity.measured: efflux ratio at 2 h, 10 µM
Just the number, please.

Problem: Any idea what its efflux ratio at 2 h, 10 µM is? The compound is CC(=O)N1CCC(NC(=O)NC23CC4CC(CC(C4)O2)C3)CC1
Solution: 4.3

Problem: Consider the compound shown here: O=C(NC12CC3CC(CC(C3)O1)C2)N[C@H]1CC[C@H](Oc2ccc(C(=O)O)cc2)CC1 What is its recorded efflux ratio at 2 h, 10 µM?
Solution: 55.4
